- Test system: NQO1 specific enzyme activity in BEAS-2B cells (marker for NRF2 activation)
- assay-info: BEAS-2B NQO1 MTT Assay
- Type: cell-based
- measurement-parameters: Homo sapiens, BEAS-2B, 48 h, NQO1 specific activity induction, 48 hours with compound
pEC50: −log10 of the molar value.
observed-property: pEC50

Solved cases (2 shown):
chem-smiles | assayed-target | result
CCC1CCN(Cc2nccn2Cc2cc([C@@H](c3ccc4c(nnn4CC)c3C)C(C)(C)C(=O)O)sc2C)CC1 | NQO1 specific enzyme activity in BEAS-2B cells (marker for NRF2 activation) | 8.00 to 9.00
CC[C@@H]1CN(Cc2nc([C@@H](c3ccc4c(nnn4CC)c3C)C(C)(C)C(=O)Nc3cccnc3)sc2C)S(=O)(=O)c2cnccc2O1 | NQO1 specific enzyme activity in BEAS-2B cells (marker for NRF2 activation) | 6.00 to 7.00

The following compounds each have a reported value; give each one's pEC50.
1. CCn1nnc2c(C)c([C@H](c3cc(CN4C[C@@H](C)Cc5ccccc5S4(=O)=O)c(C)s3)C(C)(C)C(=O)O)ccc21
2. CC[C@@H]1CN(Cc2nc([C@@H](c3ccc4c(nnn4CC)c3C)C(C)(C)C(=O)O)sc2C)S(=O)(=O)c2ncccc2O1
3. CC[C@@H]1CN(Cc2cc([C@@H](c3ccc4c(nnn4CC)c3C)C(C)(C)C(=O)O)sc2Cl)S(=O)(=O)c2cccnc2O1
4. CC[C@H]1Cc2ccccc2S(=O)(=O)N(Cc2nc([C@@H](c3ccc4c(nnn4CC)c3C)C(C)(C)C(=O)O)sc2C)C1
5. CCn1nnc2c(C)c([C@@H](c3cc(CN4C[C@@H](C)Cc5ccc(C(F)(F)F)cc5S4(=O)=O)n(C)n3)C(C)(C)C(=O)O)ccc21
6. CC[C@@H]1CN(Cc2cc([C@@H](c3ccc4c(nnn4CC)c3C)C(C)(C)C(=O)Nc3nnn[nH]3)sc2C)S(=O)(=O)c2ccccc2O1
7. CC[C@@H]1CN(Cc2cc([C@H](CCc3cn(CC)nn3)C(C)(C)C(=O)O)sc2C)S(=O)(=O)c2cccnc2O1

Reply:
1: > 9.00; 2: 8.00 to 9.00; 3: > 9.00; 4: > 9.00; 5: 6.00 to 7.00; 6: 7.00 to 8.00; 7: 8.00 to 9.00

====

For each of the compounds below, state its pEC50.
- System: NQO1 specific enzyme activity in BEAS-2B cells (marker for NRF2 activation)
- assay-info: BEAS-2B NQO1 MTT Assay
- Assay type: cell-based
- measurement-parameters: NQO1 specific activity induction, 48 hours with compound
pEC50: −log10 of the molar value.

Record excerpt, results attached:
compound | observed-property | result
CC[C@@H]1CN(Cc2cc(C(CC(=O)O)c3ccc4c(nnn4CC)c3C)sc2C)S(=O)(=O)c2ccccc2O1 (single isomer, unassigned; isomer 1) [Example 20] | pEC50 | 7.00 to 8.00
CC[C@@H]1CN(Cc2nc(C(c3ccc4c(nnn4CC)c3C)C(C)(C)C(=O)O)sc2C)S(=O)(=O)c2ccccc2O1 (single isomer, unassigned; isomer 1) [Example 13] | pEC50 | 8.00 to 9.00
CC[C@@H]1CN(Cc2cc(C(CC(=O)O)c3ccc4c(nnn4CC)c3C)sc2C)S(=O)(=O)c2ccccc2O1 (single isomer, unassigned; isomer 2) [Example 21] | pEC50 | 6.00 to 7.00

Pending compound:
Task item: Sample CC[C@@H]1CN(Cc2nc(C(c3ccc4c(nnn4CC)c3C)C(C)(C)C(=O)O)sc2C)S(=O)(=O)c2ccccc2O1 (single isomer, unassigned; isomer 2) [Example 14] — what was its pEC50?
Reply: 7.00 to 8.00

====

- System: NQO1 specific enzyme activity in BEAS-2B cells (marker for NRF2 activation)
- assay-info: BEAS-2B NQO1 MTT Assay
- Format: cell-based
- measurement-parameters: Homo sapiens, BEAS-2B, 48 h, NQO1 specific activity induction, 48 hours with compound
Would you kindly list EC50 for each of these compounds?

Check out these entries, answers already filled in.
chem-smiles | result
CC[C@@H]1CN(Cc2cc([C@@H](c3ccc4c(nnn4CC)c3F)C(C)(C)C(=O)O)sc2Cl)S(=O)(=O)c2ccccc2O1 | < 0.001 µM
CC[C@@H]1CN(Cc2cc([C@@H](CC(=O)O)c3ccc4c(nnn4CC)c3C)sc2Cl)S(=O)(=O)c2cccnc2O1 | 1 to 10 µM
CC[C@@H]1CN(Cc2cc([C@@H](CC(=O)O)c3ccc4c(nnn4CC)c3C)sc2Cl)S(=O)(=O)c2cnccc2O1 | 0.1 to 1 µM

Task item: Need EC50 of "CC[C@@H]1CN(Cc2cc([C@@H](c3ccc4c(nnn4CC)c3C)C(C)(C)C(=O)O)sc2C)S(=O)(=O)c2cccnc2O1" , thanks.
Reply: < 0.001 µM
